Tested on: HaCat
Assay: Cytotoxic Profiling of Annotated Libraries Using Quantitative High-Throughput Screening (AID 1296008); note: % is set by controls: 0 for no effect and ±100 for the full control effect; nearly all actives have a fitted effect of over 60% in size
Details: Five cell lines viability, CellTiter-Glo ATP luminescence, 48-72 h; active compounds read low
Method: Cell-based phenotypic screening is a commonly used approach to discover biological pathways, novel drug targets, chemical probes and high-quality hit-to-lead molecules. […] A pintool (Kalypsys) was used to transfer 23 nL of compound solution to the 1536-well assay plates. […] Plates were left at room temperature for 10 min before imaging the ATP-coupled luminescence using a ViewLux microplate imager (PerkinElmer, Waltham, MA).
Results filed as inconclusive are left out.
Let's look at some molecules and their measured max response.
Write the answer as a number in %, unit excluded.

Some solved entries appear below for comparison.
CC(Cc1ccc(O)c(O)c1)(NN)C(=O)O (configuration not stated); -11
CCN1CCN(C(=O)N[C@H](C(=O)N[C@@H]2C(=O)N3C(C(=O)O)=C(CSc4nnnn4C)CS[C@@H]23)c2ccc(O)cc2)C(=O)C1=O; 2.66
CC(C)(O)[C@H]1CC[C@@](C)([C@H]2[C@@H](O)C[C@@]3(C)[C@@H]4C[C@H](O[C@@H]5O[C@H](CO)[C@@H](O)[C@H](O)[C@@H]5O)[C@H]5C(C)(C)[C@@H](O[C@@H]6OC[C@@H](O)[C@H](O)[C@@H]6O)CC[C@@]56C[C@@]46CC[C@]23C)O1; -6.06
O=C1c2c(O)cccc2[C@@H]([C@@H]2O[C@H](CO)[C@@H](O)[C@H](O)[C@H]2O)c2cc(CO)cc(O)c21; -8.19
CN(C)CC(=O)N1CCC(c2ccc(NC(=O)c3ncc(C#N)[nH]3)c(C3=CCCCC3)c2)CC1; 3.1
COc1cc(OC)c(C=CS(=O)(=O)Cc2ccc(OC)c(NCC(=O)O)c2)c(OC)c1; 3.08
CC(=O)OC[C@@H]1O[C@@H](n2ccc(=O)[nH]c2=O)[C@H](OC(C)=O)[C@H]1OC(C)=O; -10.5
Cc1[nH]c(C=C2C(=O)Nc3ccccc32)c(C)c1CCC(=O)O; 0.623

Query :: # value lookup — system HaCat, readout max response, item CC(=O)ON=C1C(c2c(O)[nH]c3cc(Br)ccc23)=Nc2ccccc21
Result :: -13.8

Query :: Continue with Cc1ccccc1C(=O)Nc1ccc(C(=O)N2CCCC(O)c3cc(Cl)ccc32)c(C)c1 (configuration not stated)
Result :: 1.52

Query :: Continue with OCC(O)C(O)C(O)CO (configuration not stated)
Result :: -1.15

Query :: Continue with Cc1noc(-c2ccc(CSCCC(=O)O)cc2)c1NC(=O)OC(C)c1ccccc1Cl (configuration not stated)
Result :: -23.2

Query :: Continue with Cc1cnc(NC(=O)Nc2cc(Br)c(C)cc2OC[C@@H]2CNCCO2)cn1
Result :: 1.25

Query :: Continue with O=C(O)C(=O)Nc1cccc(C2=NN=N[N]2)c1
Result :: -4.6

Query :: Continue with COc1ccc(S(=O)(=O)Nc2cc(-c3c(O)ccc4ccccc34)c(O)c3ccccc23)cc1
Result :: -11.6

Query :: Continue with COc1cc([C@@H]2c3cc4c(cc3[C@H](O)[C@H]3COC(=O)[C@@H]23)OCO4)cc(OC)c1OC
Result :: 4.88

Query :: Continue with C[C@H](NC(=O)[C@@H](O)c1cc(F)cc(F)c1)C(=O)N[C@@H]1C(=O)N(C)c2ccccc2-c2ccccc21
Result :: -6.76
